Target: PARP1 WT (UniProt P09874 1-1014)
Sequence (P09874 whole entry): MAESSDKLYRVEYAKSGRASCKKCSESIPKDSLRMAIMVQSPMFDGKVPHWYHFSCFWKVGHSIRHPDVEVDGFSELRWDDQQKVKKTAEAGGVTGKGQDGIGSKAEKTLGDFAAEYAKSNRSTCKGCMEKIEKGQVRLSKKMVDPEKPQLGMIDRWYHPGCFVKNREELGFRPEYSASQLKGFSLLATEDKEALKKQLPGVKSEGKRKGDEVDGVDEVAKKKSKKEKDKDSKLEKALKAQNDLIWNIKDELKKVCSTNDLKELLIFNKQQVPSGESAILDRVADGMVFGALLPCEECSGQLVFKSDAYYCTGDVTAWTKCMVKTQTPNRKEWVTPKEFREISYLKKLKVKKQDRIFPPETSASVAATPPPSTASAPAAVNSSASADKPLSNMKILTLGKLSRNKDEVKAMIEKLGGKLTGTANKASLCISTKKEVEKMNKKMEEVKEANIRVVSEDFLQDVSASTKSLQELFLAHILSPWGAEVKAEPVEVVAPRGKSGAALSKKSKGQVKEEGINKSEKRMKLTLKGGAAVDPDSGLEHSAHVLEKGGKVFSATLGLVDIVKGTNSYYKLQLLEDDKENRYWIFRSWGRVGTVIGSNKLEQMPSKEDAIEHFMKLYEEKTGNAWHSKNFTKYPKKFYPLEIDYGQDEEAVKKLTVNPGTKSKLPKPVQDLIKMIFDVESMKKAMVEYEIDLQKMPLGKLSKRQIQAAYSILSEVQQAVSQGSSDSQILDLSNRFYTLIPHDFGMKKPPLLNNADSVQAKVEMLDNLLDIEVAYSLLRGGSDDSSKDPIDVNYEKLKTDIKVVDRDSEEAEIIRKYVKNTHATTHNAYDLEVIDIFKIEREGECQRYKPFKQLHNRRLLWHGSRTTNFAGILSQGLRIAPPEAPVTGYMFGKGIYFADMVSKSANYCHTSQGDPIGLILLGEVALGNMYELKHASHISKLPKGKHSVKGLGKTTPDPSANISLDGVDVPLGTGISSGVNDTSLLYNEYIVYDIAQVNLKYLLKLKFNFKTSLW
Test: fluorescence polarization

Binder	Readout units	Kd
18-bp DSB duplex (dsDNA) DNA 1: GGGTTGCGGCCGCTTGGG DNA 2: CCCAAGCGGCCGCAACCC	nM	59.7
